SYSTEM TESTED: SMAD3 MH1 (Homo sapiens, UniProt P84022 1-132)
Sequence (P84022 1-132): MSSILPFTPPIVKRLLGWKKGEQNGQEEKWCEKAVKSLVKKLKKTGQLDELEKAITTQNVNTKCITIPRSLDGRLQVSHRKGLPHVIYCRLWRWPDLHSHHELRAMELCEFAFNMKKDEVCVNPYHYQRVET
ASSAY PROTOCOL: EMSA; Hill 3.1; EMSA: 25 mM Tris-HCl (pH not given for binding buffer; RNA stock pH 7.5), 115 mM KCl, 1 mM MgCl2, 1 mM DTT, 20 ng/ul poly I:C, 0.1 mg/ml BSA, 10% glycerol, on ice 2 h; 0.5x TBE gel at 4 C
RUN CONDITIONS: protein: recombinant; tags: 6xHis-SUMO cleaved; label: 5' 32P; hairpin
MEASURE: Kd

Incoming: Which Kd reading was recorded for the binder GGACGCUUAUCAGACUGAUGUUGUUCGCAACACCAGUCGAUGGGCGUCC (structured_RNA) [1a hsa-miR-21 central stem] ?
Outgoing: 2500 nM
